Consider the following molecules and their measured normalized growth readings.
- TEST DESCRIPTION: chemical genetic growth profiling, strain panel (AID 1159580);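 further: tested at 20 µM; growth read once vehicle control cultures reached saturation at 30 °C; 1 = growth at the plate median or of vehicle wells; lower values mean less growth of the strain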
- APPLIED CONDITIONS: S. cerevisiae deletion strains, growth OD, locus YLR262C, strain YPT6, stronger effect = lower value
About 2,000 (36%) of roughly 5,500 compounds were called active. About 18% were inconclusive and are not listed. This is one part of the list.
QUANTITY KIND: normalized growth

>>> value_reported("Oc1ccc(Cl)cc1Cc1cc(Cl)ccc1O")
0.101
>>> value_reported("COC(=O)C[C@H]1C(C)(C)C(=O)[C@@H]2CC3=C(CC[C@]4(C)C3=CC(=O)O[C@H]4c3ccoc3)[C@@]1(C)C2=O")
1.09
>>> value_reported("O=C(Cn1ccnc1[N+](=O)[O-])NCCO")
1.07
>>> value_reported("c1ccc(-c2cc3c(nn2)CCc2nonc2-3)cc1")
1.02
>>> value_reported("COc1ccccc1N=C(N)SCc1ccccc1")
0.999

Values compiled from PubChem BioAssay AID1159580.
